- System: MS2 coat protein
- test summary: apparent KD of MS2 coat protein; designed switch direction (-1 OFF switch, 1 ON switch): -1; higher = weaker reporter binding
- measurement conditions: input ligand: FMN 200 uM
Entries and their apparent KD of MS2 coat protein
readout name: apparent KD of MS2 coat protein (nM)

>>> reported_value("UUCCAACAUGAGGAUCACCCAUGUCAGGAUAUGCGACCUCCACCACCAACCUCACCUCGCAGAAGGGACACACC [Mod-Cyanosaur/default-title] (Eterna round: R97, puzzle: Exclusion 1)")
24.2
>>> reported_value("UAUGGUAAAGUCAGGAUAUACGUGCAGAUUUCUAGGUAGAAGGGACAUGAGGAUCACCCAUGUAUGGUAGUGUU [Ex4 #45] (Eterna round: R97, puzzle: Brourd's mod of Exclusion 4)")
75.5
>>> reported_value("UUUUCAUAUGAAGGAUAUACUUAACAUGAGGAUCACCCAUGUGGUGUUGUGAGUGAGUGAGUUUAGUAGAAGGUCAAUUCUUUU [JMF's solution 90] (Eterna round: R96, puzzle: Exclusion NG 2)")
613
>>> reported_value("CCGGGCGCAGGAUAUACGUGGCCCAAAUAAAUAAUAACCACACAUGAGGAUCACCCAUGUAGAAGGGCGCCCGG [-26.59, -25.61 kcal, A 32%] (Eterna round: R97, puzzle: Exclusion 2)")
116
>>> reported_value("GGGUGACAGUUAGGAUAUCUUAGCACGCCGUAGAGAGAAGGGACAUGAGGAUCACCCAUGUUGUAGUGCCUCAAACACUGCUAG [Beintitian] (Eterna round: R96, puzzle: Exclusion NG 1)")
45.7
>>> reported_value("GUCAGCUCGUGAGGAUAUGCACAUGAGGAUCACCCAUGUAAGAUCAAGCUGCUUCGGCAGCAAGUGCAGAAGGCACGAGCUGAC [ENG2/9-A1] (Eterna round: R96, puzzle: Exclusion NG 2)")
137
>>> reported_value("AGCUAGUGCCGAGGAUAUACAUGAGGAUCACCCAUGUAGCCGUGAGGCUUUGUCUCACGGGAUAUGUAGAAGGCGGCGUUGGCA [JL ENG2 1.53] (Eterna round: R96, puzzle: Exclusion NG 2)")
34.1
>>> reported_value("AGUGUGUGGCAGGAUAUGCAAUUAAUAGGUGAAGCAGAAGGGUCUACAUGAGGAUCACCCAUGUAUGCGGUUGA [Ex6 #23] (Eterna round: R97, puzzle: Exclusion 6)")
297
>>> reported_value("GCUGGGUCAGGAUAUACAGGGUCGAAAGAUCUGUGAUACCUACAUGAGGAUCACCCAUGUAGAAGGGACUGGGC [ChP 11-04-2015 #10] (Eterna round: R96, puzzle: Exclusion 2)")
43.9
>>> reported_value("CGCGAGGGAGGAUAUGCACUCAGUGAUCACGCCCAAAUUCGACAUGAGGAUCACCCAUGUAGAAGGCCCGGCUA [EX2 B.15] (Eterna round: R97, puzzle: Exclusion 2)")
21.1

====

- System: MS2 coat protein
- test summary: apparent KD of MS2 coat protein; designed switch direction (-1 OFF switch, 1 ON switch): 1; higher = weaker reporter binding
- measurement conditions: input ligand: microRNA oligo, concentration not stated
readout name: apparent KD of MS2 coat protein

>>> reported_value("GGAGCCGGCCUAGGAUAUUUCAUAUAUUAACAUGAGGAUCACCCAUGUAGGCCAGAAGGCCUUGGGAAGAAGGAGGUCGGCUCC [Loop Effect - U25,U27,U28] (Eterna round: R96, puzzle: Same State NG 2)")
"49.8 nM"
>>> reported_value("AUUUCUAGCACAGGAUAUCAUGCGAAAAUUGCGUGAGAAGGGUGGACGCUGUCAUUCACGGAAGACAUGAGGAUCACCCAUGUC [SameState NG1 #76] (Eterna round: R96, puzzle: Same State NG 1)")
"53.4 nM"
>>> reported_value("GUAGCAUACCGAGGAUAUUCAUAAAAUAAAUAAACAUGAGGAUCACCCAUGUGGCGAAAGCCUUGGGAGAAGGCGGAAUGCUAC [Xeonanis - 20 Mod73] (Eterna round: R96, puzzle: Same State NG 2)")
"370 nM"
>>> reported_value("GUUACAUGAGGAUCACCCAUGUAUGUGUGGGAGUAAGUGUCUUAGGAUAUCUGUUAUUUAAUUUGAGAGAAGGAAGAUUGUUGU [JMF's solution 47] (Eterna round: R96, puzzle: Same State NG 3)")
"71.7 nM"
